Numbers sourced from patent US20210388087A1.

molecular target: T1, CD3 epsilon homodimer protein (UniProt P07766 23-126); assay: SPR, antibody over immobilised CD3e homodimer;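 further: SPR at 25 °C with CD3 epsilon homodimer amine-coupled to a CM4 sensor chip and antibody flowed over as analyte in HBS-EP+ running buffer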
T1 construct: also called CD3 (CD3 epsilon)
T1 sequence (P07766 23-126): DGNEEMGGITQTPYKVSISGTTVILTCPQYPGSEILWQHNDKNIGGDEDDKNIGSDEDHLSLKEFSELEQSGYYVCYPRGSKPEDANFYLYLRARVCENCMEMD
RECORDED ENDPOINT: KD ratio to GLS3000

• CE115HA000/GLS3000 R24P (antibody, IgG1, name in Kabat numbering, V domains shown, one-arm IgG1) VH: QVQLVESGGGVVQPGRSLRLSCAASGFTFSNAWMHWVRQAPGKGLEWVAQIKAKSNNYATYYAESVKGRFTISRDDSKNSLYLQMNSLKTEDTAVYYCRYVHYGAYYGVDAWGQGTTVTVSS VL: DIVMTQSPLSLPVTPGEPASISCPSSQSLVHSNRNTYLHWYQQKPGQAPRLLIYKVSNRFSGVPDRFSGSGSGTDFTLKISRVEAEDVGVYYCGQGTQVPYTFGQGTKLEIK = 0.34

// below: KD ratio to GLS3000 requested for another binder
Query block: Given CE115HA000/GLS3000 L27bF (antibody, IgG1, name in Kabat numbering, V domains shown, one-arm IgG1) VH: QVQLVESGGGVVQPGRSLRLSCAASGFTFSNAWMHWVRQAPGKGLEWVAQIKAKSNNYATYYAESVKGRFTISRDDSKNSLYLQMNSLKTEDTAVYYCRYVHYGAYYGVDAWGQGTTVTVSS VL: DIVMTQSPLSLPVTPGEPASISCRSSQSFVHSNRNTYLHWYQQKPGQAPRLLIYKVSNRFSGVPDRFSGSGSGTDFTLKISRVEAEDVGVYYCGQGTQVPYTFGQGTKLEIK , state its recorded KD ratio to GLS3000.
Result block: 2.67
